All values here come from patent US4698332A.

test: Acute toxicity test of sodium salt of N-acetylneuraminic acid, mouse (Example 11); design: species or system ICR mice; conditions: in vivo, iv, intravenous injection, first line (sex not given), 95% 5,679-7,084
Where a name gives a salt, the structure may show the parent alone.

# COMPOUND, DISPLAY_UNIT, LD50 at 336 h
records = [
    ("CC(=O)N[C@H]1[C@H]([C@H](O)[C@H](O)CO)OC(O)(C(=O)O)C[C@@H]1O (stereo partly shown) [sodium salt of N-acetylneuraminic acid]", "mg/kg", 6290),
]

* * *

assay: Acute toxicity test of sodium salt of N-acetylneuraminic acid, mouse (Example 11); design: species or system ICR mice; details: in vivo, iv, intravenous injection, second line (sex not given), 95% 7,214-9,073
Counter-ions that a name gives are not always drawn.
MEASURE: LD50 at 336 h

# COMPOUND, VALUE_MEASURED
records = [
    ("CC(=O)N[C@H]1[C@H]([C@H](O)[C@H](O)CO)OC(O)(C(=O)O)C[C@@H]1O (stereo partly shown) [sodium salt of N-acetylneuraminic acid]", "7950 mg/kg"),
]

* * *

assay: Acute toxicity test of N-acetylneuraminic acid, mice (Example 6); set-up: species or system ICR mice; conditions: mouse, in vivo, iv; mice F; 95% 2137-2925
MEASURE: LD50 at 336 h (mg/kg)

# MOLECULE, MEASURE, DISPLAY_UNIT, VALUE_MEASURED
records = [
    ("CC(=O)N[C@H]1[C@H]([C@H](O)[C@H](O)CO)OC(O)(C(=O)O)C[C@@H]1O (stereo partly shown)", "LD50 at 336 h", "mg/kg", 2500),
]

* * *

Test: Acute toxicity test of sodium salt of N-acetylneuraminic acid, mouse (Example 11)
Parameters: species or system ICR mice
Details: in vivo, ip, intraperitoneal injection, first line (sex not given)
Protocol: A test was conducted to examine the acute toxicity of sodium salt of N-acetylneuraminic acid, using mice, rats, and guinea pig by means of per as, subcutaneous injection, intravenous injection, intraperitoneal injection, and inhalation. 20% (W/V) dissolved in distilled water
Counter-ions that a name gives are not always drawn.

# MOLECULE, LD50 at 336 h
data = [
    ("CC(=O)N[C@H]1[C@H]([C@H](O)[C@H](O)CO)OC(O)(C(=O)O)C[C@@H]1O (stereo partly shown) [sodium salt of N-acetylneuraminic acid]", "> 5000 mg/kg"),
]

* * *

experiment: Acute toxicity test of sodium salt of N-acetylneuraminic acid, rat (Example 11); type: in vivo, SD rats; settings: in vivo, po, per os, second line (sex not given)
Where a name gives a salt, the structure may show the parent alone.

# MOLECULE, LD50 at 336 h
rows = [
    ("CC(=O)N[C@H]1[C@H]([C@H](O)[C@H](O)CO)OC(O)(C(=O)O)C[C@@H]1O (stereo partly shown) [sodium salt of N-acetylneuraminic acid]", "> 5000 mg/kg"),
]

* * *

experiment: Acute toxicity test of sodium salt of N-acetylneuraminic acid, mouse (Example 11); parameters: species or system ICR mice; details: in vivo, po, per os, second line (sex not given)
Counter-ions that a name gives are not always drawn.
MEASURE: LD50 at 336 h

# COMPOUND, MEASURE, VALUE_MEASURED
rows = [
    ("CC(=O)N[C@H]1[C@H]([C@H](O)[C@H](O)CO)OC(O)(C(=O)O)C[C@@H]1O (stereo partly shown) [sodium salt of N-acetylneuraminic acid]", "LD50 at 336 h", "> 5000 mg/kg"),
]

* * *

Test: Acute toxicity test of N-acetylneuraminic acid, mice (Example 6)
Design: species or system ICR mice
Conditions: mouse, in vivo, sc, subcutaneous; mice F
Method: A test was conducted to examine the acute toxicity of N-acetylneuraminic acid, using mice and rats, by means of intravenous injection, subcutaneous injection, per os inhalation. 13 to 15% (W/V) dissolved in distilled water By Litchfield-Wilcoxon method.
MEASURE: LD50 at 336 h

# COMPOUND, MEASURE, VALUE_MEASURED
measured = [
    ("CC(=O)N[C@H]1[C@H]([C@H](O)[C@H](O)CO)OC(O)(C(=O)O)C[C@@H]1O (stereo partly shown) [N-acetylneuraminic acid]", "LD50 at 336 h", "> 5000 mg/kg"),
]

* * *

assay: Acute toxicity test of sodium salt of N-acetylneuraminic acid, rat (Example 11); format: in vivo, SD rats; settings: in vivo, sc, subcutaneous injection, second line (sex not given)
Structures can show the parent of a compound that is named as a salt.
MEASURE: LD50 at 336 h

# COMPOUND, MEASURE, VALUE_MEASURED
data = [
    ("CC(=O)N[C@H]1[C@H]([C@H](O)[C@H](O)CO)OC(O)(C(=O)O)C[C@@H]1O (stereo partly shown) [sodium salt of N-acetylneuraminic acid]", "LD50 at 336 h", "> 5000 mg/kg"),
]

* * *

Assay: Acute toxicity test of sodium salt of N-acetylneuraminic acid, mouse (Example 11)
Design: species or system ICR mice
Details: in vivo, po, per os, first line (sex not given)
Protocol: A test was conducted to examine the acute toxicity of sodium salt of N-acetylneuraminic acid, using mice, rats, and guinea pig by means of per as, subcutaneous injection, intravenous injection, intraperitoneal injection, and inhalation. 20% (W/V) dissolved in distilled water
Structures can show the parent of a compound that is named as a salt.
MEASURE: LD50 at 336 h

# COMPOUND, VALUE_MEASURED
rows = [
    ("CC(=O)N[C@H]1[C@H]([C@H](O)[C@H](O)CO)OC(O)(C(=O)O)C[C@@H]1O (stereo partly shown) [sodium salt of N-acetylneuraminic acid]", "> 5000 mg/kg"),
]

* * *

assay: Acute toxicity test of sodium salt of N-acetylneuraminic acid, mouse (Example 11); design: species or system ICR mice; settings: in vivo, sc, subcutaneous injection, first line (sex not given)
Where a name gives a salt, the structure may show the parent alone.

# MOLECULE, LD50 at 336 h
measured = [
    ("CC(=O)N[C@H]1[C@H]([C@H](O)[C@H](O)CO)OC(O)(C(=O)O)C[C@@H]1O (stereo partly shown) [sodium salt of N-acetylneuraminic acid]", "> 5000 mg/kg"),
]

* * *

Test: Acute toxicity test of N-acetylneuraminic acid, mice (Example 6)
Parameters: species or system ICR mice
Settings: mouse, in vivo, po, per os; mice F
Procedure: A test was conducted to examine the acute toxicity of N-acetylneuraminic acid, using mice and rats, by means of intravenous injection, subcutaneous injection, per os inhalation. 13 to 15% (W/V) dissolved in distilled water By Litchfield-Wilcoxon method.

# MOLECULE, LD50 at 336 h
data = [
    ("CC(=O)N[C@H]1[C@H]([C@H](O)[C@H](O)CO)OC(O)(C(=O)O)C[C@@H]1O (stereo partly shown) [N-acetylneuraminic acid]", "> 5000 mg/kg"),
]

* * *

assay: Acute toxicity test of N-acetylneuraminic acid, rats (Example 6); assay type: in vivo, SD rats; details: rat, in vivo, po, per os; rats F
MEASURE: LD50 at 336 h

# COMPOUND, VALUE_MEASURED
data = [
    ("CC(=O)N[C@H]1[C@H]([C@H](O)[C@H](O)CO)OC(O)(C(=O)O)C[C@@H]1O (stereo partly shown)", "> 5000 mg/kg"),
]

* * *

assay: Acute toxicity test of N-acetylneuraminic acid, rats (Example 6); type: in vivo, SD rats; details: rat, in vivo, sc, subcutaneous; rats F

# COMPOUND, LD50 at 336 h
data = [
    ("CC(=O)N[C@H]1[C@H]([C@H](O)[C@H](O)CO)OC(O)(C(=O)O)C[C@@H]1O (stereo partly shown)", "> 5000 mg/kg"),
]

* * *

assay: Acute toxicity test of N-acetylneuraminic acid, rats (Example 6); type: in vivo, SD rats; settings: rat, in vivo, iv; rats F; 95% 1741-2030
MEASURE: LD50 at 336 h (mg/kg)

# COMPOUND, VALUE_MEASURED
data = [
    ("CC(=O)N[C@H]1[C@H]([C@H](O)[C@H](O)CO)OC(O)(C(=O)O)C[C@@H]1O (stereo partly shown)", 1880),
]

* * *

experiment: Acute toxicity test of sodium salt of N-acetylneuraminic acid, rat (Example 11); type: in vivo, SD rats; conditions: in vivo, ip, intraperitoneal injection, second line (sex not given)
Where a name gives a salt, the structure may show the parent alone.
MEASURE: LD50 at 336 h

# MOLECULE, VALUE_MEASURED
measured = [
    ("CC(=O)N[C@H]1[C@H]([C@H](O)[C@H](O)CO)OC(O)(C(=O)O)C[C@@H]1O (stereo partly shown) [sodium salt of N-acetylneuraminic acid]", "> 5000 mg/kg"),
]

* * *

experiment: Acute toxicity test of sodium salt of N-acetylneuraminic acid, rat (Example 11); assay type: in vivo, SD rats; details: in vivo, iv, intravenous injection, second line (sex not given)
Counter-ions that a name gives are not always drawn.

# COMPOUND, LD50 at 336 h
measured = [
    ("CC(=O)N[C@H]1[C@H]([C@H](O)[C@H](O)CO)OC(O)(C(=O)O)C[C@@H]1O (stereo partly shown) [sodium salt of N-acetylneuraminic acid]", "> 5000 mg/kg"),
]
